# ASSAY: Plasma levels in Atrial Arrhythmia Conversion Trial 1 (Example 6)
# Assay type: in vivo, human
# REPORTED CONDITIONS: human, plasma, intravenous, patients receiving both infusions; read-out: Plasma Concentration of COMPOUND A at 10 min., Minimum
REPORTED METRIC: concentration at 10 min (ng/mL)
Express the result in ng/mL but write the number alone.

Q: Look up concentration at 10 min of COc1ccc(CCO[C@@H]2CCCC[C@H]2N2CC[C@@H](O)C2)cc1OC.Cl [COMPOUND A, monohydrochloride] and report it.
A: 0

---

# ASSAY: Plasma concentrations of COMPOUND A in electrophysiology study (Example 1)
# Type: in vivo
# REPORTED CONDITIONS: human, intravenous, Dose Level 1, 2 mg/kg, T = 45 min
REPORTED METRIC: concentration at 45 min (ng/mL)
Express the result in ng/mL but write the number alone.

Q: Look up concentration at 45 min of COc1ccc(CCO[C@@H]2CCCC[C@H]2N2CC[C@@H](O)C2)cc1OC.Cl [COMPOUND A, monohydrochloride] and report it.
A: 1080

---

# ASSAY: Plasma levels in Atrial Arrhythmia Conversion Trial 1 (Example 6)
# Assay type: in vivo, human
# REPORTED CONDITIONS: human, plasma, intravenous, 3 mg/kg, patients receiving only a first infusion (3.0 mg/kg); read-out: Plasma Concentration of COMPOUND A at 10 min., Mean
REPORTED METRIC: concentration at 10 min
Answer shape: numeric part, then the unit.

Q: Look up concentration at 10 min of COc1ccc(CCO[C@@H]2CCCC[C@H]2N2CC[C@@H](O)C2)cc1OC.Cl [COMPOUND A, monohydrochloride] and report it.
A: 4280 ng/mL

---

# ASSAY: Plasma levels in Atrial Arrhythmia Conversion Trial 1 (Example 6)
# Type: in vivo, human
# REPORTED CONDITIONS: human, plasma, intravenous, patients receiving both infusions; read-out: Plasma Concentration of COMPOUND A at 10 min., Median
REPORTED METRIC: concentration at 10 min (ng/mL)
Express the result in ng/mL but write the number alone.

Q: Look up concentration at 10 min of COc1ccc(CCO[C@@H]2CCCC[C@H]2N2CC[C@@H](O)C2)cc1OC.Cl [COMPOUND A, monohydrochloride] and report it.
A: 4070

---

# ASSAY: Plasma levels in Atrial Arrhythmia Conversion Trial 1 (Example 6)
# Assay type: in vivo, human
# REPORTED CONDITIONS: human, plasma, intravenous, 3 mg/kg, patients receiving only a first infusion; read-out: Plasma Concentration of COMPOUND A at 10 min., Maximum
REPORTED METRIC: concentration at 10 min (ng/mL)
Express the result in ng/mL but write the number alone.

Q: Look up concentration at 10 min of COc1ccc(CCO[C@@H]2CCCC[C@H]2N2CC[C@@H](O)C2)cc1OC.Cl [COMPOUND A, monohydrochloride] and report it.
A: 11600

---

# ASSAY: Plasma levels in Atrial Arrhythmia Conversion Trial 1 (Example 6)
# Format: in vivo, human
# REPORTED CONDITIONS: human, plasma, intravenous, 3 mg/kg, patients receiving only a first infusion; read-out: Plasma Concentration of COMPOUND A at 10 min., Median
# Procedure: Plasma levels were obtained, where possible, for the patients at various time intervals following the initial infusion. The time intervals were 10 minutes (i.e., immediately after the initial infusion), 35 minutes (i.e., immediately after the second infusion where applicable), 50 minutes, 90 minutes, and 24 hours.
REPORTED METRIC: concentration at 10 min (ng/mL)
Express the result in ng/mL but write the number alone.

Q: Look up concentration at 10 min of COc1ccc(CCO[C@@H]2CCCC[C@H]2N2CC[C@@H](O)C2)cc1OC.Cl [COMPOUND A, monohydrochloride] and report it.
A: 4080

---

# ASSAY: Plasma levels in Atrial Arrhythmia Conversion Trial 1 (Example 6)
# Type: in vivo, human
# REPORTED CONDITIONS: human, plasma, intravenous, 2 mg/kg, patients receiving both infusions (3.0 + 2.0 mg/kg); read-out: Plasma Concentration of COMPOUND A at 10 min., Mean
REPORTED METRIC: concentration at 10 min (ng/mL)
Express the result in ng/mL but write the number alone.

Q: Look up concentration at 10 min of COc1ccc(CCO[C@@H]2CCCC[C@H]2N2CC[C@@H](O)C2)cc1OC.Cl [COMPOUND A, monohydrochloride] and report it.
A: 3910

---

# ASSAY: Plasma levels in Atrial Arrhythmia Conversion Trial 1 (Example 6)
# Format: in vivo, human
# REPORTED CONDITIONS: human, plasma, intravenous, 3 mg/kg, patients receiving only a first infusion; read-out: Plasma Concentration of COMPOUND A at 10 min., Minimum
REPORTED METRIC: concentration at 10 min

Q: Look up concentration at 10 min of COc1ccc(CCO[C@@H]2CCCC[C@H]2N2CC[C@@H](O)C2)cc1OC.Cl [COMPOUND A, monohydrochloride] and report it.
A: 0 ng/mL

The values you see were collected from patent US8263638B2.
